biological target: furin, P09958; test: furin cleavage Z-score vs untreated control; higher = more cleavage, active = 3.5 or more, inactive = 1 or less, 8 variable residues between constant flanks; conditions: 7.5 min;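 also: purified furin at 1:10 enzyme:substrate in 50 mM HEPES pH 7.5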
Sequence (P09958 whole entry): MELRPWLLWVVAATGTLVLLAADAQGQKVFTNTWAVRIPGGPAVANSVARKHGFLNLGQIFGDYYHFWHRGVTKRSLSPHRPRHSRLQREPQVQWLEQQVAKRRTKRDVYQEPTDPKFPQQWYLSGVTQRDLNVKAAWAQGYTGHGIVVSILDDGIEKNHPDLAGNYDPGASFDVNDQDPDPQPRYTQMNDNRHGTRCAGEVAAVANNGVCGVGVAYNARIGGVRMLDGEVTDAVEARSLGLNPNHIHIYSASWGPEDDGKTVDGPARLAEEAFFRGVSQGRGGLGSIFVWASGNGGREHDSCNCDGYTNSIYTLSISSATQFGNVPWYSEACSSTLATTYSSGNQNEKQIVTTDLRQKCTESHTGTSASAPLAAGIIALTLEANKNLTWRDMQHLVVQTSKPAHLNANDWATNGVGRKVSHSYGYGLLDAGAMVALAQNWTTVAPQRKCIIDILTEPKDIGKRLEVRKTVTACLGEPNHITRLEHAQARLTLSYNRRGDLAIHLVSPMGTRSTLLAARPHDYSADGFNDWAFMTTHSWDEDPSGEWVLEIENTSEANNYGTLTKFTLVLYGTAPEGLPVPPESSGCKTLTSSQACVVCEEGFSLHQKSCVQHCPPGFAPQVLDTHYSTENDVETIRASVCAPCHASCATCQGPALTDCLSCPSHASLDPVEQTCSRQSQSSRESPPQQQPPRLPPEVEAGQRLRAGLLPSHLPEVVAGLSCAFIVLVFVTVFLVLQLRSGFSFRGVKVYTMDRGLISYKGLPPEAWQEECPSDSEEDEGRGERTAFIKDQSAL
The list shows a part of the results. How many sequences the whole screen found active is unknown.
Quantity: furin cleavage Z-score

>>> result("CALELRRVRSAGNASASA [FS-605]")
"0.493 (inactive)"
>>> result("CASPSGQKRSAGNASASA [FS-723]")
"0.144 (inactive)"
>>> result("CAHLKRDTEDAGNASASA [FS-2863]")
"-0.885 (inactive)"
>>> result("CAPKSRIVRSAGNASASA [FS-369]")
"14.9 (active)"

All figures here come from the supplement of paper PMC3545927.
